target: Neutrophil elastase (Homo sapiens) (UniProt P08246); test: Compound was evaluated for inhibitory activity against human leukocyte elastase
Sequence (P08246 whole entry): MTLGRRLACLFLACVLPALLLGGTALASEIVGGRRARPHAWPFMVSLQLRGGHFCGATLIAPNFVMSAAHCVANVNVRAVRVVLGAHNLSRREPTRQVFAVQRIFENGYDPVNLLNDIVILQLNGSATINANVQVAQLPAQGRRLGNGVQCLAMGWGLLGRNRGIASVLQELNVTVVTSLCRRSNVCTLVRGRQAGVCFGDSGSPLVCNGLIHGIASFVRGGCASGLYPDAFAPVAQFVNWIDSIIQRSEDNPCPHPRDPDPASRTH
Readout: K inact/Ki
Could you give the number and then its unit, please?

# get_value(readout='K inact/Ki', item= CC(C)CC1CS(=O)(=O)N(COP(=O)(OCc2ccccc2)OCc2ccccc2)C1=O (configuration not stated) )
95000 M⁻¹ s⁻¹

# get_value(readout='K inact/Ki', item= CC(C)CC1C(=O)N(COP(=O)(Oc2ccccc2)Oc2ccccc2)S(=O)(=O)N1CC1C=CC=C1 (configuration not stated) )
4.2e+06 M⁻¹ s⁻¹

# get_value(readout='K inact/Ki', item= COP(=O)(OC)OCN1C(=O)C(CC(C)C)N(CC2C=CC=C2)S1(=O)=O (configuration not stated) )
430000 M⁻¹ s⁻¹

# get_value(readout='K inact/Ki', item= CC(C)CC1C(=O)N(COP(=O)(OCc2ccccc2)OCc2ccccc2)S(=O)(=O)N1Cc1ccccc1 (configuration not stated) )
6e+06 M⁻¹ s⁻¹

# get_value(readout='K inact/Ki', item= CCCCOP(=O)(OCCCC)OCN1C(=O)C(CC(C)C)N(C)S1(=O)=O (configuration not stated) )
2.7e+06 M⁻¹ s⁻¹

# get_value(readout='K inact/Ki', item= CCCCOP(=O)(OCCCC)OCN1C(=O)C(CC(C)C)N(CC2C=CC=C2)S1(=O)=O (configuration not stated) )
2.5e+06 M⁻¹ s⁻¹

# get_value(readout='K inact/Ki', item= CCCCOP(=O)(OCCCC)OCN1C(=O)C(CC(C)C)CS1(=O)=O (configuration not stated) )
82000 M⁻¹ s⁻¹
